The measured values listed here are drawn from ChEMBL document CHEMBL1139411.

As shown below, each of these molecules has a reported pIC50 value.
- protocol-notes: Inhibition of pig brain CK1
- Set-up: species or system Sus scrofa
pIC50: −log10 of the molar value.
measured-property: pIC50

| molecular-string | quantitative-result |
| --- | --- |
| CC(C)[C@H](CO)Nc1nc(Nc2cccc(-c3cccnc3)c2)c2ncn(C(C)C)c2n1 | 7.10 |
| CC[C@H](CO)Nc1nc(NCc2cccc(-c3ccccc3)c2)c2ncn(C(C)C)c2n1 | 5.96 |
| CC[C@H](CO)Nc1nc(Nc2cccc(-c3ccncc3)c2)c2ncn(C(C)C)c2n1 | 6.96 |

====

- System: HEK293
- protocol-notes: Antiproliferative activity against HEK293 cells assessed as survival after 48 hrs by MTS reduction assay
- Format: cell-based
- condition-parameters: Homo sapiens, HEK293, 48 h
As shown below, each of these compounds has a reported IC50 value.

| molecular-string | limit-sign | IC50 (µM) |
| --- | --- | --- |
| CC(C)[C@H](CO)Nc1nc(NCc2ccc(-c3cccnc3)cc2)c2ncn(C(C)C)c2n1 | = | 0.76 |
| CC[C@H](CO)Nc1nc(-c2ccncc2)c2ncn(C(C)C)c2n1 | > | 100 |
| CC[C@H](CO)Nc1nc(NCc2ccccc2)c2ncn(C(C)C)c2n1 | = | 46.7 |
| CC(C)[C@H](CO)Nc1nc(NCc2ccc(-c3ccccn3)cc2)c2ncn(C(C)C)c2n1 | = | 0.9 |
| CC[C@H](CO)Nc1nc(NCc2ccncc2)c2ncn(C(C)C)c2n1 | = | 73.7 |

====

- System: HEK293
- protocol-notes: Antiproliferative activity against HEK293 cells assessed as survival after 48 hrs by MTS reduction assay
- Assay type: cell-based
- condition-parameters: Homo sapiens, HEK293, 48 h
pIC50: −log10 of the molar value.
measured-property: pIC50

| molecule | limit-sign | quantitative-result |
| --- | --- | --- |
| CC[C@H](CO)Nc1nc(NCc2cccc(-c3ccncc3)c2)c2ncn(C(C)C)c2n1 | = | 4.70 |
| CC[C@H](CO)Nc1nc(Nc2cccc(-c3ccncc3)c2)c2ncn(C(C)C)c2n1 | = | 4.94 |
| CC[C@H](CO)Nc1nc(NCc2ccccn2)c2ncn(C(C)C)c2n1 | = | 3.72 |
| CC[C@H](CO)Nc1nc(NCc2cccnc2)c2ncn(C(C)C)c2n1 | = | 4.69 |
| CC[C@H](CO)Nc1nc(NCc2cccc(-c3cccnc3)c2)c2ncn(C(C)C)c2n1 | = | 5.28 |
| CC[C@H](CO)Nc1nc(-c2ccccc2)c2ncn(C(C)C)c2n1 | < | 4.00 |
| CC[C@H](CO)Nc1nc(Nc2ccc(-c3ccccc3)cc2)c2ncn(C(C)C)c2n1 (stereo in doubt; 7f) | = | 4.77 |
| CC[C@H](CO)Nc1nc(Nc2ccc(-c3ccncc3)cc2)c2ncn(C(C)C)c2n1 | = | 5.10 |
| CC[C@H](CO)Nc1nc(NCc2ccc(-c3ccccc3)cc2)c2ncn(C(C)C)c2n1 | = | 5.88 |

====

- protocol-notes: Inhibition of pig brain CK1
- Parameters: species or system Sus scrofa
pIC50: −log10 of the molar value.
measured-property: pIC50

| compound | measured-property | limit-sign | quantitative-result |
| --- | --- | --- | --- |
| CC(C)[C@H](CO)Nc1nc(Nc2ccc(-c3ccccn3)cc2)c2ncn(C(C)C)c2n1 | pIC50 | = | 6.40 |
| CC(C)[C@H](CO)Nc1nc(NCc2ccc(-c3ccccn3)cc2)c2ncn(C(C)C)c2n1 | pIC50 | = | 6.22 |
| CC(C)n1cnc2c(NCc3ccc(-c4ccccn4)cc3)nc(NC(C)(C)CO)nc21 | pIC50 | = | 6.17 |
| CC(C)[C@H](CO)Nc1nc(Nc2ccc(-c3cccnc3)cc2)c2ncn(C(C)C)c2n1 | pIC50 | = | 6.20 |
| CC[C@H](CO)Nc1nc(NCc2ccc(-c3ccccn3)cc2)c2ncn(C(C)C)c2n1 | pIC50 | = | 6.22 |
| CC[C@H](CO)Nc1nc(Nc2ccccc2-c2ccccc2)c2ncn(C(C)C)c2n1 | pIC50 | < | 4.30 |
| CC[C@@H](CO)Nc1nc(NCc2ccncc2)c2ncn(C(C)C)c2n1 | pIC50 | = | 5.66 |
| CC[C@H](CO)Nc1nc(NCc2ccc(-c3cccnc3)cc2)c2ncn(C(C)C)c2n1 | pIC50 | = | 6.14 |
| CC[C@H](CO)Nc1nc(NCc2cccc(-c3ccncc3)c2)c2ncn(C(C)C)c2n1 | pIC50 | = | 5.92 |
| CC(C)n1cnc2c(Nc3ccc(-c4ccccc4)cc3)nc(NC(C)(C)CO)nc21 | pIC50 | = | 7.32 |
| CC[C@H](CO)Nc1nc(NCc2cccc(-c3ccccn3)c2)c2ncn(C(C)C)c2n1 | pIC50 | = | 6.05 |
| CC(C)[C@H](CO)Nc1nc(Nc2ccc(-c3ccccc3)cc2)c2ncn(C(C)C)c2n1 | pIC50 | = | 7.10 |
| CC[C@H](CO)Nc1nc(-c2cccnc2)c2ncn(C(C)C)c2n1 | pIC50 | < | 4.30 |
| CC[C@H](CO)Nc1nc(Nc2cccc(-c3ccccn3)c2)c2ncn(C(C)C)c2n1 | pIC50 | = | 7.85 |
| CC[C@H](CO)Nc1nc(Nc2cccc(-c3ccccc3)c2)c2ncn(C(C)C)c2n1 (stereo in doubt; 7b) | pIC50 | = | 7.30 |
| CC[C@H](CO)Nc1nc(Nc2ccc(-c3cccnc3)cc2)c2ncn(C(C)C)c2n1 | pIC50 | = | 6.66 |
| CC[C@@H](CO)Nc1nc(NCc2ccccn2)c2ncn(C(C)C)c2n1 | pIC50 | = | 4.89 |
| CC[C@H](CO)Nc1nc(NCc2ccc(-c3ccncc3)cc2)c2ncn(C(C)C)c2n1 | pIC50 | = | 5.96 |
| CC(C)[C@H](CO)Nc1nc(NCc2ccc(-c3cccnc3)cc2)c2ncn(C(C)C)c2n1 | pIC50 | = | 6.15 |
| CC[C@H](CO)Nc1nc(Nc2ccc(-c3ccccc3)cc2)c2ncn(C(C)C)c2n1 (stereo in doubt; 7f) | pIC50 | = | 6.22 |
| CC(C)[C@H](CO)Nc1nc(Nc2cccc(-c3ccccc3)c2)c2ncn(C(C)C)c2n1 | pIC50 | = | 6.22 |
| CC(C)[C@H](CO)Nc1nc(Nc2ccc(-c3ccncc3)cc2)c2ncn(C(C)C)c2n1 | pIC50 | = | 5.92 |
| CC[C@H](CO)Nc1nc(Nc2ccc(-c3ccccn3)cc2)c2ncn(C(C)C)c2n1 | pIC50 | = | 6.89 |
| CC[C@H](CO)Nc1nc(-c2ccncc2)c2ncn(C(C)C)c2n1 | pIC50 | < | 5.00 |
| CC[C@@H](CO)Nc1nc(NCc2ccccc2)c2ncn(C(C)C)c2n1 [(S)-ROSCOVITINE] | pIC50 | = | 5.22 |
| CC(C)n1cnc2c(Nc3cccc(-c4ccccn4)c3)nc(NC(C)(C)CO)nc21 | pIC50 | = | 7.70 |
| CC[C@H](CO)Nc1nc(NCc2ccccn2)c2ncn(C(C)C)c2n1 | pIC50 | = | 5.15 |
| CC[C@H](CO)Nc1nc(NCc2ccncc2)c2ncn(C(C)C)c2n1 | pIC50 | = | 5.70 |
| CC[C@H](CO)Nc1nc(NCc2ccccc2)c2ncn(C(C)C)c2n1 [SELICICLIB] | pIC50 | = | 5.64 |
| CC[C@H](CO)Nc1nc(Nc2ccc(-c3ccncc3)cc2)c2ncn(C(C)C)c2n1 | pIC50 | = | 6.64 |
| CC[C@H](CO)Nc1nc(NCc2cccc(-c3cccnc3)c2)c2ncn(C(C)C)c2n1 | pIC50 | = | 6.05 |
| CC[C@H](CO)Nc1nc(NCc2cccnc2)c2ncn(C(C)C)c2n1 | pIC50 | = | 5.66 |
| CC[C@H](CO)Nc1nc(Nc2cccc(-c3cccnc3)c2)c2ncn(C(C)C)c2n1 | pIC50 | = | 7.30 |
| CC(C)n1cnc2c(Nc3ccc(Br)cc3)nc(-c3ccncc3)nc21 | pIC50 | = | 7.08 |
| CC[C@H](CO)Nc1nc(NCc2ccc(-c3ccccc3)cc2)c2ncn(C(C)C)c2n1 | pIC50 | = | 6.10 |
| CC(C)n1cnc2c(Nc3ccc(Br)cc3)nc(-c3cccnc3)nc21 | pIC50 | = | 7.04 |
| CC[C@@H](CO)Nc1nc(NCc2cccnc2)c2ncn(C(C)C)c2n1 | pIC50 | = | 5.39 |
| CC[C@H](CO)Nc1nc(-c2ccccc2)c2ncn(C(C)C)c2n1 | pIC50 | < | 4.30 |
| CC(C)[C@H](CO)Nc1nc(Nc2cccc(-c3ccccn3)c2)c2ncn(C(C)C)c2n1 | pIC50 | = | 7.51 |
